property-name: melting point

Take a look at these entries with their results.
chem_smiles=Cc1c(-c2ccncc2)[nH]c(-c2ccncc2)c1CO property_name="melting point" result="258 to 261 °C"
chem_smiles=CC(=O)c1c(-c2ccc(F)c(Cl)c2)[nH]c(-c2ccncc2)c1C property_name="melting point" result="206 to 209 °C"
chem_smiles=Cc1c(-c2ccncc2)[nH]c(-c2ccncc2)c1C(=O)OC(C)C property_name="melting point" result="218 to 221 °C"
chem_smiles=CC(=O)c1c(C)[nH]c(-c2ccncc2)c1-c1ccncc1 property_name="melting point" result="236 to 239 °C"
chem_smiles=CC(=O)c1cc(-c2ccncc2)[nH]c1C property_name="melting point" result="236 to 237 °C"

Parameters: items (list). Returns: melting point for each item.
1. O=C1CCCc2c(-c3ccncc3)[nH]c(-c3ccccc3)c21
2. CCCc1c(-c2ccncc2)[nH]c(-c2ccncc2)c1C(C)=O

1: 259 to 260 °C; 2: 111 to 113 °C
